Measured values drawn from patent USRE48267E1 for this set.

Catalogue of cGMP response rel. to 1 uM CNP22; 1 uM peptide, NIH3T3 cells values
# systemName: T1, NPR-B (natriuretic peptide receptor B), murine, expressed endogenously on NIH3T3 cells (murine, UniProt Q6VVW5 17-1047)
# T1 sequence (looked up): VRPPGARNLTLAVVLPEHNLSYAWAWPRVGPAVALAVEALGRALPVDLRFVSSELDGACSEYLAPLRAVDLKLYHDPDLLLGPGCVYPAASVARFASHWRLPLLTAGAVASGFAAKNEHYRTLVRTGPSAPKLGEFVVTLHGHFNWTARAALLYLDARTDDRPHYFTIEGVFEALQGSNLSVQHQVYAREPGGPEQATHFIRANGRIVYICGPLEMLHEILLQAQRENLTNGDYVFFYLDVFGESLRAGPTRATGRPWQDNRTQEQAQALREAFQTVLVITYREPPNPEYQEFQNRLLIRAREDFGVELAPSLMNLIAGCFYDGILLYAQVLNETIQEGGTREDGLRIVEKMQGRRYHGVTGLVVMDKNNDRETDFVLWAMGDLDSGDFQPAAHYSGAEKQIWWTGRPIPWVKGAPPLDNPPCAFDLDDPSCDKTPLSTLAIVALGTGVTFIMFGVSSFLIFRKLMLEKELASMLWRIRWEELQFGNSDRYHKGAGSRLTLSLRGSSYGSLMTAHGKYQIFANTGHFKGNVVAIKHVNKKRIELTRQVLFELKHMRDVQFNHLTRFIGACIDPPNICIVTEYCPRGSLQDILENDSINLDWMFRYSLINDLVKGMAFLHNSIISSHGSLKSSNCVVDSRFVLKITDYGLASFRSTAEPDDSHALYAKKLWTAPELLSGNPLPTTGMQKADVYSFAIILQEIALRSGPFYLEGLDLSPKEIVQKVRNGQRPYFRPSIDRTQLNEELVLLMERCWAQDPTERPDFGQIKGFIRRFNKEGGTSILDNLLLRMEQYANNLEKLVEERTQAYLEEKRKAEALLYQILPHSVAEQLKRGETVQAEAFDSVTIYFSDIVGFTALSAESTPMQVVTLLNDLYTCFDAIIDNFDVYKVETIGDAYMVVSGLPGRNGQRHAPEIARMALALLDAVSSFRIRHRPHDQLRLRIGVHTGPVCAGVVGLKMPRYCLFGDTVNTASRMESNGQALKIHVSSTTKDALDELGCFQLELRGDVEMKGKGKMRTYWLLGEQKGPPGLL
# assayExplanation: cell-based or functional assay
Where no end group is shown, it is not given here. [ ]: non-standard residue; d: D form. NMeL = CN[C@@H](CC(C)C)C(=O)O

[
  {
    "binder": "GLSKGCFG[NMeL]KLDRIGSMSGLGC (ends and bridges not checked) [CNP22, N-methyl-L9]",
    "result": "8 rel. to 1 uM CNP22 (100)"
  },
  {
    "binder": "GLSKGCXGLKLDRIGSMSGLGC (3-Cl-Phe at 7) [CNP22, 3-chloro-F7]",
    "result": "93 rel. to 1 uM CNP22 (100)"
  },
  {
    "binder": "GLSKGCXGLKLDRIGSMSGLGC (D-Phe at 7) [CNP22, D-F7 (D-Phe)]",
    "result": "6 rel. to 1 uM CNP22 (100)"
  },
  {
    "binder": "GLSKGCFGLKLDRIGSMSG[NMeL]GC (ends and bridges not checked) [CNP22, N-methyl-L20]",
    "result": "5 rel. to 1 uM CNP22 (100)"
  }
]

Ask: Fill blank: measured cGMP response rel. to 1 uM CNP22; 1 uM peptide, NIH3T3 cells of the binder GLSKGCFGLKLDRIGSMSGLGC (ends and bridges not checked; also: backbone C=O of Cys6 reduced to CH2 (C6-CH2-NH isostere)) [CNP22, C6-CH2-NH (reduced carbonyl)] is ____.
Result: 66 rel. to 1 uM CNP22 (100)

Ask: I am curious: what cGMP response rel. to 1 uM CNP22; 1 uM peptide, NIH3T3 cells value has been reported for GLSKGCFG[NMeL]K[NMeL]DRIGSMSGLGC (ends and bridges not checked) [CNP22, N-methyl-L9, N-methyl-L11] ?
Result: 11 rel. to 1 uM CNP22 (100)

Ask: Please look up its cGMP response rel. to 1 uM CNP22; 1 uM peptide, NIH3T3 cells: GLSKGCFG[NMeL]K[NMeL]DRIGSMSG[NMeL]GC (ends and bridges not checked) [CNP22, N-methyl-L9, N-methyl-L11, N-methyl-L20]
Result: 10 rel. to 1 uM CNP22 (100)
